Tested on: amyloid-beta (1-42) peptide
Assay: ELISA assay of amyloid-beta (1-42) in conditioned media of 2B7 cells
Format: cell-based
Details: 5 h, Aβ-42, 2B7 cells, 5 hours; read-out: IC50 range
pIC50: −log10 of the molar value.

| molecule | pIC50 |
| --- | --- |
| COCO[C@H]1[C@H](O)COC(O[C@H]2CC[C@]34C[C@]35CC[C@]3(C)C6C(O[C@@H]([C@@H]7OC(=O)OC7(C)C)C[C@H]6C)[C@H](O)[C@@]3(C)[C@@H]5CC[C@H]4C2(C)C)[C@@H]1O (some centres unmarked) | 5.00 to 6.00 |
| CC(=O)O[C@H]1CC[C@]23C[C@]24CC[C@]2(C)C5[C@H](C)C[C@H]([C@H](OC(C)=O)C(C)(C)O)O[C@@H]5[C@H](O)[C@@]2(C)[C@@H]4CC[C@H]3C1(C)C (some centres unmarked) | ≥ 6.00 |

---

Test system: Aβ-38
Experiment: MSD Human (6E10) Ab 3-PLEX elisa, conditioned media of 2B7 cells: Aβ-38
Assay type: cell-based
Settings: Homo sapiens; Aβ-38 (superscript a); read-out: 50% reduction value
measured_property: IC50

| compound | observed_value |
| --- | --- |
| CC(C)[C@@H](OC(=O)N1CCC1)C1C[C@@H](C)[C@H]2C(O1)[C@H](O)[C@@]1(C)C3CC[C@H]4C(C)(C)C(OC(=O)NC5CNC5)CC[C@@]45C[C@@]35CC[C@]21C (some centres unmarked) | < 1000 nM |
| CC(C)[C@@H](OC(=O)N1CCC1)C1C[C@@H](C)[C@H]2C(O1)[C@H](O)[C@@]1(C)C3CC[C@H]4C(C)(C)C(OC(=O)N5CC(NCC(F)(F)F)C5)CC[C@@]45C[C@@]35CC[C@]21C (some centres unmarked) | 1000 to 10000 nM |
| CCO[C@@H]([C@H]1C[C@@H](C)[C@H]2[C@H](O1)[C@H](O)[C@@]1(C)[C@@H]3CC[C@H]4C(C)(C)[C@@H](OC5CN(C)CCO5)CC[C@@]45C[C@@]35CC[C@]21C)C(C)(C)O (some centres unmarked) | < 1000 nM |
| CCO[C@@H]([C@H]1C[C@@H](C)[C@H]2[C@H](O1)[C@H](O)[C@@]1(C)C3CC[C@H]4C(C)(C)[C@@H](O[C@H]5CN(C6COC6)CCO5)CC[C@@]45C[C@@]35CC[C@]21C)C(C)(C)O (some centres unmarked) | < 1000 nM |
| CC(C)[C@@H](OC(=O)N1CCC1)C1C[C@@H](C)[C@H]2C(O1)[C@H](O)[C@@]1(C)C3CC[C@H]4C(C)(C)C(OC(=O)N5CCN(S(C)(=O)=O)CC5)CC[C@@]45C[C@@]35CC[C@]21C (some centres unmarked) | < 1000 nM |

---

Property: inhibition at 20 µM; scope: individual molecules
Test system: Aβ-42
Experiment: MSD Human (6E10) Ab 3-PLEX elisa, conditioned media of 2B7 cells: Aβ-42
Type: cell-based
Conditions: Homo sapiens; Aβ-42, 20 μM
Experimental: Assays were conducted to determine the ability of a Compound of Formula I to modulate […], and Aβ-38. Plates with capture antibodies were blocked for 1-2 hours at room temperature with 150 μL of the manufactures blocking reagent. […] Final Wash and Readout: • Wash wells 5× with MSD wash buffer • Added 150 μL 2×MSD read buffer • Read with MSD imager. A-Beta peptide levels for each peptide are calculated from the standard curve using the MSD software provided with the MSD 2400 Imager. […]

| molecule | inhibition at 20 µM |
| --- | --- |
| C[C@@H]1CC(CNC(C(=O)O)C(F)(F)F)OC2[C@H]1[C@@]1(C)CC[C@@]34C[C@@]35CC[C@H](O[C@H]3CN(C6COC6)CCO3)C(C)(C)[C@@H]5CCC4[C@]1(C)[C@H]2O (some centres unmarked) | 25 to 75% |
| CO[C@@H]([C@H]1C[C@@H](C)[C@H]2[C@H](O1)[C@H](OC)[C@@]1(C)C3CC[C@H]4C(C)(C)[C@@H](O[C@H]5CN(C6COC6)CCO5)CC[C@@]45C[C@@]35CC[C@]21C)C(C)(C)O (some centres unmarked) | 25 to 75% |
| CCOC(C)(C)[C@H](O)C1C[C@@H](C)[C@H]2C(O1)[C@H](O)[C@@]1(C)C3CC[C@H]4C(C)(C)C(O)CC[C@@]45C[C@@]35CC[C@]21C (some centres unmarked) | < 25% |
| C[C@@H]1CC(COC(=O)C2CCC2)OC2[C@H]1[C@@]1(C)CC[C@@]34C[C@@]35CC[C@H](O[C@H]3CN(C6COC6)CCO3)C(C)(C)[C@@H]5CCC4[C@]1(C)[C@H]2O (some centres unmarked) | < 25% |
| CC(=O)OCC1C[C@@H](C)C2C(O1)[C@H](O)[C@@]1(C)[C@@H]3CC[C@H]4C(C)(C)[C@@H](O)CC[C@@]45C[C@@]35CC[C@]21C (some centres unmarked) [drawing 1161] | 25 to 75% |
| CC(=O)OCC1C[C@@H](C)[C@H]2C(O1)[C@H](O)[C@@]1(C)C3CC[C@H]4C(C)(C)[C@@H](O[C@H]5CN(C6COC6)CCO5)CC[C@@]45C[C@@]35CC[C@]21C (some centres unmarked) | < 25% |
| CCOC(=O)CO[C@@H]([C@H]1C[C@@H](C)[C@H]2[C@H](O1)[C@H](O)[C@@]1(C)C3CC[C@H]4C(C)(C)[C@@H](O[C@H]5CN(C6COC6)CCO5)CC[C@@]45C[C@@]35CC[C@]21C)C(C)(C)O (some centres unmarked) | 25 to 75% |
| CCS[C@@H](C1C[C@@H](C)C2C(O1)[C@H](O)[C@@]1(C)C3CC[C@H]4C(C)(C)C(O[C@H]5CN(C6COC6)CCO5)CC[C@@]45C[C@@]35CC[C@]21C)C(C)(C)O (some centres unmarked) | 25 to 75% |
